MMP-24 activity, 100 nM final Fab with 5 nM MMP-24 values for the binders below.
Biological target: MMP-24 (human, UniProt Q9Y5R2 156-328, limits assumed)
Sequence (Q9Y5R2 156-328 limits assumed): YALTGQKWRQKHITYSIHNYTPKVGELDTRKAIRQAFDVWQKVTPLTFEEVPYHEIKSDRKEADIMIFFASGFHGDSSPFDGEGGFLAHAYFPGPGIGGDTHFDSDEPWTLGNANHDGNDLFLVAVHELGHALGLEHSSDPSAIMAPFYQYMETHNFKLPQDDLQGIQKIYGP
Experiment: cell-based or functional assay
measureName: MMP-24 activity, 100 nM final Fab with 5 nM MMP-24 (% inhibition)

[
  {
    "binder": "M0043-G02 Fab (Fab, V domains shown) VH: EVQLLESGGGLVQPGGSLRLSCAASGFTFSWYPMFWVRQAPGKGLEWVSGIYSSGGPTDYADSVKGRFTISRDNSKNTLYLQMNSLRAEDTAVYYCAKDTLGRYYDFWSGYSYGMDVWGQGTTVTVSS VL: DIQMTQSPGTLSLSPGERATLSCRASQSVSSSYLAWYQQKPGQAPRLLIYGASSRATGIPDRFSGSGSGTDFTLTISRLEPEDFAVYYCQSGVTFGGGTKVEIK",
    "unitInfo": "% inhibition",
    "valueObserved": 74
  },
  {
    "binder": "M0031-C02 Fab (Fab, V domains shown) VH: EVQLLESGGGLVQPGGSLRLSCAASGFTFSPYPMGWVRQAPGKGLEWVSSIVSSGGLTLYADSVKGRFTISRDNSKNTLYLQMNSLRAEDTAVYYCARGGRLYDILTGQGAPFDYWGQGTLVTVSS VL: DIQMTQSPLSLPVTPGEPASISCRSSQSLLHSNGYYYLDWYLQKPGQSPQLLIYLGSYRASGVPDRFSGSGSGTDFTLKISSVEAEDVGVYYCMQALQTPLTFGGGTRVDIK",
    "unitInfo": "% inhibition",
    "valueObserved": 54
  },
  {
    "binder": "M0037-C09 Fab (Fab, V domains shown) VH: EVQLLESGGGLVQPGGSLRLSCAASGFTFSHYEMFWVRQAPGKGLEWVSSISPSGGQTHYADSVKGRFTISRDNSKNTLYLQMNSLRAEDTAVYYCATDRTYYDFWSGYGPLWYWGQGTLVTVSS VL: DIQMTQSPLSLPVTLGESASVSCRSSQSLLHENGHNYLDWYLQKPGQSPQLLIYLGSNRASGVPDRFSGSGSGTDFTLKISRVEAEDVGVYYCMQSLKTPPTFGPGTKVEIK",
    "unitInfo": "% inhibition",
    "valueObserved": 72
  },
  {
    "binder": "M0040-A11 Fab (Fab, V domains shown) VH: EVQLLESGGGLVQPGGSLRLSCAASGFTFSHYVMFWVRQAPGKGLEWVSRIVPSGGATMYADSVKGRFTISRDNSKNTLYLQMNSLRAEDTAVYYCARDRPLYDSSGYVDYWGQGTLVTVSS VL: QSALTQPPSASGSPGQSVTISCTGTSSDVGAYNYVSWYQQHPDKAPKLIIYNVNERPSGVPDRFSGSKSGNTASLTVSGLQAEDEADYYCTSYAGSNKIGVSGTGTKVTVL",
    "unitInfo": "% inhibition",
    "valueObserved": 58
  },
  {
    "binder": "M0040-A06 Fab (Fab, V domains shown) VH: EVQLLESGGGLVQPGGSLRLSCAASGFTFSYYGMYWVRQAPGKGLEWVSSISSSGGYTDYADSVKGRFTISRDNSKNTLYLQMNSLRAEDTAVYYCARRIKYYDIEGEGAFDIWGQGTMVTVSS VL: DIVMTQTPPSLPVNPGEPASISCRSSQSLLHRNGYNYLDWYLQKPGQSPQLLIHLGSYRASGVPDRFSGSGSGTDFTLKISRVEAEDVGVYYCMQPLQTPFTFGPGTKVDIK",
    "unitInfo": "% inhibition",
    "valueObserved": 65
  }
]
